// data source = patent US11186617B2

- System: IgE antibody in the serum from a patient
- PROCEDURE TEXT: Epitope mapping (2): overlapping peptide library, ELISA
- Type: binding, human
- CONDITION PARAMETERS: overlapping peptide fragments, 10 amino acids in length; 10 μg/ml biotin-bound peptide; 2% serum from patient 1; FIG. 2
READOUT TYPE: binding with the IgE antibody from the patient (absorbance at 450 nm)

Some solved cases for reference:
>>> reported_value("SEQ ID NO: 17: overlapping 10-amino-acid peptide fragment from SEQ ID NO: 15 library, contains SEQ ID NO: 22 (QEFPQQQQFP; epitope candidate)")
"slightly weaker binding"
>>> reported_value("SEQ ID NO: 16: overlapping 10-amino-acid peptide fragment from SEQ ID NO: 15 library (EFPQQQQFPQ; epitope candidate)")
"no binding"
>>> reported_value("SEQ ID NO: 26: overlapping 10-amino-acid peptide fragment from SEQ ID NO: 23 library, contains SEQ ID NO: 29 (FPQQQPPQQH; epitope candidate)")
"strong binding"
>>> reported_value("SEQ ID NO: 19: overlapping 10-amino-acid peptide fragment from SEQ ID NO: 15 library, contains SEQ ID NO: 22 (PQQEFPQQQQ; epitope candidate)")
"slightly weaker binding"
>>> reported_value("SEQ ID NO: 25: overlapping 10-amino-acid peptide fragment from SEQ ID NO: 23 library, contains SEQ ID NO: 29 (PQQQPPQQHQ; epitope candidate)")
"strong binding"
>>> reported_value("SEQ ID NO: 18: overlapping 10-amino-acid peptide fragment from SEQ ID NO: 15 library, contains SEQ ID NO: 22 (QQEFPQQQQF; epitope candidate)")
"strong binding"
>>> reported_value("SEQ ID NO: 28: overlapping 10-amino-acid peptide fragment from SEQ ID NO: 23 library (QQFPQQQPPQ; epitope candidate)")
"no binding"
>>> reported_value("SEQ ID NO: 21: overlapping 10-amino-acid peptide fragment from SEQ ID NO: 15 library (QFPQQEFPQQ; epitope candidate)")
"no binding"
>>> reported_value("SEQ ID NO: 20: overlapping 10-amino-acid peptide fragment from SEQ ID NO: 15 library, contains SEQ ID NO: 22 (FPQQEFPQQQ; epitope candidate)")
"strong binding"
>>> reported_value("SEQ ID NO: 27: overlapping 10-amino-acid peptide fragment from SEQ ID NO: 23 library, contains SEQ ID NO: 29 (QFPQQQPPQQ; epitope candidate)")
"slightly weaker binding"

binding with the IgE antibody from the patient (absorbance at 450 nm) lookup needed for SEQ ID NO: 24: overlapping 10-amino-acid peptide fragment from SEQ ID NO: 23 library (QQQPPQQHQF; epitope candidate) , thanks.
no binding

* * *

- Test system: IgE antibody from the patient
- PROCEDURE TEXT: Epitope mapping (3): alanine scanning ELISA, patient serum
- Assay type: binding, human
- CONDITION PARAMETERS: alanine-substituted peptides; serum from patient 1; FIG. 3
READOUT TYPE: binding activity to the IgE antibody from the patient (absorbance at 450 nm)

>>> reported_value("SEQ ID NO: 33: amino acid at position 4 in SEQ ID NO: 22 substituted with alanine (QQFPQQEFAQQQQFP; modified epitope)")
"lost or reduced"
>>> reported_value("SEQ ID NO: 30: amino acid at position 7 in SEQ ID NO: 22 substituted with alanine (QQFPQQEFPQQAQFP; modified epitope)")
"lost or reduced"
